These data points were gathered from patent US9187426B2.

Each entry below lists one item and its recorded melting point value.

Completed entries (count: 6):
[
  {
    "record.smiles": "Cn1ccc(CNC(=O)c2ccnc(N3CCN(Cc4ccc(F)cc4)C3=O)c2)n1",
    "melting point": "79 to 81 °C"
  },
  {
    "record.smiles": "O=C(NCc1cncs1)c1ccnc(N2CCN(Cc3ccc(C(F)(F)F)cc3)C2=O)c1",
    "melting point": "163 to 165 °C"
  },
  {
    "record.smiles": "O=C(Nc1cc(-c2nc(Cc3ccccc3)no2)ccn1)c1ccccc1",
    "melting point": "150 to 151 °C"
  },
  {
    "record.smiles": "O=C(NCc1ccccc1)c1ccnc(NC(=O)c2ccccc2F)c1",
    "melting point": "175 to 176 °C"
  },
  {
    "record.smiles": "O=C(NCc1ccccn1)c1ccnc(N2CCN(Cc3ccc(OC(F)(F)F)cc3)C2=O)c1",
    "melting point": "123 to 125 °C"
  },
  {
    "record.smiles": "O=C(NCc1cc[nH]n1)c1ccnc(N2CCN(Cc3ccc(F)cc3)C2=O)c1",
    "melting point": "178 to 180 °C"
  }
]

Query compound follows.
// sample `O=C(NCc1cnc(Cl)s1)c1ccnc(N2CCN(Cc3ccc(C(F)(F)F)cc3)C2=O)c1` , its melting point was 209 to 211 °C

====

- measured.on: Stearoyl-CoA Desaturase (SCD1) (Mus musculus)
- Sequence (P13516 whole entry): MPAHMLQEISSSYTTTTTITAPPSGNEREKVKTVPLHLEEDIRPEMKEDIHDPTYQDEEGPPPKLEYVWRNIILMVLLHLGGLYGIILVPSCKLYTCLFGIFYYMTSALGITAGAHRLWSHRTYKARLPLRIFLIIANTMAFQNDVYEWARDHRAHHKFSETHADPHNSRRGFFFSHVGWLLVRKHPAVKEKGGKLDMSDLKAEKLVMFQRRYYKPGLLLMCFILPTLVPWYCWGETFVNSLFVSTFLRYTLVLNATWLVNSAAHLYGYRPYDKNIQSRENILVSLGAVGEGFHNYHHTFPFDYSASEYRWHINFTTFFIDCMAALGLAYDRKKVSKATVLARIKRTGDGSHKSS
Strictly below 30 nM in IC50: T. Otherwise: F.

Take a look at these entries with their results.
[
  {
    "compound": "Cc1cc(CNC(=O)c2ccnc(N3CCN(Cc4ccc(OC(F)(F)F)cc4)C3=O)c2)no1 [Example 26.13]",
    "measured.on": "Stearoyl-CoA Desaturase (SCD1) (Mus musculus)",
    "group.label": "T"
  },
  {
    "compound": "O=C(NCc1ccccn1)c1ccnc(N2CCN(Cc3ccc(F)c(F)c3)C2=O)c1 [Example 25]",
    "measured.on": "Stearoyl-CoA Desaturase (SCD1) (Mus musculus)",
    "group.label": "T"
  },
  {
    "compound": "Cc1cnc(CNC(=O)c2ccnc(N3CCN(Cc4ccc(F)cc4)C3=O)c2)cn1 [Example 14.2]",
    "measured.on": "Stearoyl-CoA Desaturase (SCD1) (Mus musculus)",
    "group.label": "F"
  }
]

IC50 under 30 nM? Item: O=C(NCc1ccccn1)c1ccnc(-n2cnn(Cc3ccc(F)cc3)c2=O)c1 [Example 26.27]
F

IC50 under 30 nM? Item: Cc1cc(CNC(=O)c2ccnc(N3CCN(Cc4ccc(F)cc4)C3=O)c2)no1 [Example 14.10]
F

IC50 under 30 nM? Item: O=C(NCc1ccccn1)c1ccnc(N2CCN(Cc3ccc(OC(F)(F)F)cc3)C2=O)c1 [Example 26.15]
F

IC50 under 30 nM? Item: Cc1cc(CNC(=O)c2ccnc(N3CCN(Cc4ccc(F)c(F)c4)C3=O)c2)no1 [Example 26.23]
T

IC50 under 30 nM? Item: CN(C)c1ccc(C(=O)Nc2cc(C(=O)NCc3ccccc3)ccn2)cc1 [Example 6.11]
T

IC50 under 30 nM? Item: O=C(Nc1cc(-c2nc(Cc3ccccc3)c[nH]2)ccn1)c1ccccc1 [Example 10.2]
F

IC50 under 30 nM? Item: O=C(NCc1cocn1)c1ccnc(N2CCN(Cc3ccc(F)cc3)C2=O)c1 [Example 14]
F
